Biological target: hROMK (hKir1.1) (Homo sapiens, UniProt P48048)
Construct: HEK-hKir1.1)
Sequence (P48048 1-391): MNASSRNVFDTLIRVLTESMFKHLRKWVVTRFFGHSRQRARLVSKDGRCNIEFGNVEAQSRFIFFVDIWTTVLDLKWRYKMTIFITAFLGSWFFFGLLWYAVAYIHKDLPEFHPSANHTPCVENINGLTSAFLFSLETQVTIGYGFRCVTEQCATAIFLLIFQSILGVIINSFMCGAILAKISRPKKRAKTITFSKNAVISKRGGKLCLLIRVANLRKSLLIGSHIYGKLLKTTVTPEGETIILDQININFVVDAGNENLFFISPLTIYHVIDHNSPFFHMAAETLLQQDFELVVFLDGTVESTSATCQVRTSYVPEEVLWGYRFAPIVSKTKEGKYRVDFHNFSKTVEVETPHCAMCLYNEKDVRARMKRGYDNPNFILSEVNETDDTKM
Test: Thallium Flux Assay (ROMK channel functional thallium flux assay, FLIPR-Tetra, 384 wells)
Details: HEK293 cells stably expressing hROMK (hKir1.1); 30 min incubation with test compound
Experimental: The following Thallium Flux Assay was performed on the final product compounds in all the Examples. This assay makes use of the ability of thallium to permeate through open ROMK channels and increase the fluorescence of a dye previously loaded into the cells. Under control conditions, cells loaded with dye and exposed to thallium-containing medium display a time-dependent increase in fluorescence, the rate of which depends on number of functional channels. […]
measured-parameter: IC50 (nM)

[
  {
    "molecule": "Cc1c([C@@H](O)CN2CCN(c3cnc4cc(C#N)ccc4c3)C(=O)C2)ccc2c1COC2=O",
    "unit-descriptor": "nM",
    "test-value": 140
  }
]

A. Cc1c([C@@H](O)CN2CCN(c3ccc4cc(C#N)sc4c3)C(=O)C2)ccc2c1COC2=O
B. N#Cc1ccc2cc(N3CCN(CCc4ccc5c(c4)COC5=O)CC3=O)ccc2c1
C. Cc1c([C@@H](O)CN2CCN(c3nc4ccc(C#N)cc4s3)C(=O)C2)ccc2c1COC2=O
Hello, I need these entries ordered by IC50, highest reading first. Thanks! Put the labels in the requested order and list them out.
A, C, B

a. Cc1c([C@@H](O)CN2CCN(c3ccc4cc(C#N)ccc4c3)C(=O)C2)ccc2c1COC2=O
b. Cc1c([C@@H](O)CN2CCN(c3ccc4cc(C#N)sc4n3)C(=O)C2)ccc2c1COC2=O
// returns a or b , whichever has the lower IC50 Write the label of whichever entry you select.
a
(a: 50 nM, b: 160 nM)

I. Cc1cc2c(cc1C(O)CN1CCN(c3ccc4cc(C#N)ccc4c3)C(=O)C1)COC2=O (racemic)
II. Cc1c([C@@H](O)CN2CCN(c3ccc4cc(C#N)cnc4c3)C(=O)C2)ccc2c1COC2=O
Would you let me know which has the greater IC50 value, I or II ? Please respond with the label that marks your chosen entry.
II
(II: 210 nM, I: 70 nM)

----------
molecular target: hROMK (hKir1.1) (Homo sapiens, UniProt P48048); construct: HEK-hKir1.1); assay: Thallium Flux Assay (ROMK channel functional thallium flux assay, FLIPR-Tetra, 384 wells); settings: HEK293 cells stably expressing hROMK (hKir1.1); 30 min incubation with test compound
measured-parameter: IC50 (nM)

1. Cc1c([C@@H](O)CN2CCN(c3cc4ccc(C#N)cc4cn3)C(=O)C2)ccc2c1COC2=O
2. Cc1c([C@@H](O)CN2CCN(c3nc4cc(C#N)ccc4s3)C(=O)C2)ccc2c1COC2=O
3. Cc1c([C@@H](O)CN2CCN(c3ccc4nc(S(C)(=O)=O)ccc4c3)C(=O)C2)ccc2c1COC2=O
4. Cc1c([C@@H](O)CN2CCN(c3cc4ccc(C#N)c(C)c4cn3)C(=O)C2)ccc2c1COC2=O
Rank entries according to their IC50, from the largest number down. State the ranking by listing the labels in the requested order.
3, 4, 1, 2
(3: 220 nM, 4: 150 nM, 1: 80 nM, 2: 40 nM)

Each recorded value in this set is attributed to patent US8999991B2.
